System: PC-3 PIP/flu tumor-bearing mice
protocol summary: Biodistribution studies in PC-3 PIP/flu tumor-bearing mice
test conditions: 48 h p.i.
Listing: PC-3 flu Tumor of selected compounds

// below: answered compounds
-- ask Can you share its PC-3 flu Tumor? I mean this compound: O=C(O)CCC(NC(=O)NC(CCCCNC(=O)C(Cc1ccc2ccccc2c1)NC(=O)C1CCC(CNC(=O)C(CCCCNC(=O)CN2CCN(CC(=O)O)CCN(CC(=O)O)CCN(CC(=O)O)CC2)NC(=O)CCCCCCC(=O)NC(CCCCNC(=O)CCCc2ccc(I)cc2)C(=O)O)CC1)C(=O)O)C(=O)O (stereo not shown) [^177Lu-PSMA-ALB-04, metal not drawn]
-- reply 12.6 ± 0.82 % IA/g

-- ask Can you share its PC-3 flu Tumor? I mean this compound: O=C(O)CCC(NC(=O)NC(CCCCNC(=O)C(Cc1ccc2ccccc2c1)NC(=O)C1CCC(CNC(=O)C(CCCCNC(=O)CN2CCN(CC(=O)O)CCN(CC(=O)O)CCN(CC(=O)O)CC2)NC(=O)CC(NC(=O)CC(NC(=O)CCCc2ccc(I)cc2)C(=O)O)C(=O)O)CC1)C(=O)O)C(=O)O (stereo not shown) [^177Lu-PSMA-ALB-05, metal not drawn]
-- reply 0.57 ± 0.09 % IA/g

-- ask Can you share its PC-3 flu Tumor? I mean this compound: O=C(O)CCC(NC(=O)NC(CCCCNC(=O)C(Cc1ccc2ccccc2c1)NC(=O)C1CCC(CNC(=O)C(CCCCNC(=O)CCCc2ccc(I)cc2)NC(=O)CN2CCN(CC(=O)O)CCN(CC(=O)O)CCN(CC(=O)O)CC2)CC1)C(=O)O)C(=O)O (stereo not shown) [^177Lu-PSMA-ALB-03, metal not drawn]
-- reply 5.69 ± 3.65 % IA/g

Here is another compound to look at.
-- ask Can you share its PC-3 flu Tumor? I mean this compound: O=C(O)CCC(NC(=O)NC(CCCCNC(=O)C(Cc1ccc2ccccc2c1)NC(=O)C1CCC(n2cc(CC(NC(=O)CN3CCN(CC(=O)O)CCN(CC(=O)O)CCN(CC(=O)O)CC3)C(=O)NC(CCCCNC(=O)CCCc3ccc(I)cc3)C(=O)O)nn2)CC1)C(=O)O)C(=O)O (stereo not shown) [^177Lu-PSMA-ALB-01, metal not drawn]
-- reply 4.64 ± 1.84 % IA/g

----------
Test system: PC-3 PIP/flu tumor-bearing mice
protocol summary: Biodistribution studies in PC-3 PIP/flu tumor-bearing mice
test conditions: 4 h p.i.
Listing: Heart of selected molecules
State the answer as a number, implicitly in % IA/g.

// below: answered molecules
-- ask Can you share its Heart? I mean this molecule: O=C(O)CCC(NC(=O)NC(CCCCNC(=O)C(Cc1ccc2ccccc2c1)NC(=O)C1CCC(n2cc(CC(NC(=O)CN3CCN(CC(=O)O)CCN(CC(=O)O)CCN(CC(=O)O)CC3)C(=O)NC(CCCCNC(=O)CCCc3ccc(I)cc3)C(=O)O)nn2)CC1)C(=O)O)C(=O)O (centres unmarked) [^177Lu-PSMA-ALB-01, metal not drawn]
-- reply 8.71

-- ask Can you share its Heart? I mean this molecule: Cc1ccc(CCCC(=O)NCCCCC(NC(=O)CN2CCN(CC(=O)O)CCN(CC(=O)O)CCN(CC(=O)O)CC2)C(=O)NCC2CCC(C(=O)NC(Cc3ccc4ccccc4c3)C(=O)NCCCCC(NC(=O)NC(CCC(=O)O)C(=O)O)C(=O)O)CC2)cc1 (centres unmarked) [44Sc-PSMA-ALB-06, metal not drawn]
-- reply 6.48

-- ask Can you share its Heart? I mean this molecule: O=C(O)CCC(NC(=O)NC(CCCCNC(=O)C(Cc1ccc2ccccc2c1)NC(=O)C1CCC(CNC(=O)C(CCCCNC(=O)CCCc2ccc(I)cc2)NC(=O)CN2CCN(CC(=O)O)CCN(CC(=O)O)CCN(CC(=O)O)CC2)CC1)C(=O)O)C(=O)O (centres unmarked) [^177Lu-PSMA-ALB-03, metal not drawn]
-- reply 8.54

-- ask Can you share its Heart? I mean this molecule: O=C(O)CCC(NC(=O)NC(CCCCNC(=O)C(Cc1ccc2ccccc2c1)NC(=O)C1CCC(CNC(=O)C(CCCCNC(=O)CN2CCN(CC(=O)O)CCN(CC(=O)O)CCN(CC(=O)O)CC2)NC(=O)CC(NC(=O)CC(NC(=O)CC(NC(=O)CCCc2ccc(I)cc2)C(=O)O)C(=O)O)C(=O)O)CC1)C(=O)O)C(=O)O (centres unmarked) [^177Lu-PSMA-ALB-07, metal not drawn]
-- reply 2.43

Here is another molecule to look at.
-- ask Can you share its Heart? I mean this molecule: O=C(O)CCC(NC(=O)NC(CCCCNC(=O)C(Cc1ccc2ccccc2c1)NC(=O)C1CCC(CNC(=O)C(CCCCNC(=O)CN2CCN(CC(=O)O)CCN(CC(=O)O)CCN(CC(=O)O)CC2)NC(=O)CC(NC(=O)CC(NC(=O)CCCc2ccc(I)cc2)C(=O)O)C(=O)O)CC1)C(=O)O)C(=O)O (centres unmarked) [^177Lu-PSMA-ALB-05, metal not drawn]
-- reply 3.82
